# Test System: UniProtKB Q95136
# Sequence (Q95136 whole entry): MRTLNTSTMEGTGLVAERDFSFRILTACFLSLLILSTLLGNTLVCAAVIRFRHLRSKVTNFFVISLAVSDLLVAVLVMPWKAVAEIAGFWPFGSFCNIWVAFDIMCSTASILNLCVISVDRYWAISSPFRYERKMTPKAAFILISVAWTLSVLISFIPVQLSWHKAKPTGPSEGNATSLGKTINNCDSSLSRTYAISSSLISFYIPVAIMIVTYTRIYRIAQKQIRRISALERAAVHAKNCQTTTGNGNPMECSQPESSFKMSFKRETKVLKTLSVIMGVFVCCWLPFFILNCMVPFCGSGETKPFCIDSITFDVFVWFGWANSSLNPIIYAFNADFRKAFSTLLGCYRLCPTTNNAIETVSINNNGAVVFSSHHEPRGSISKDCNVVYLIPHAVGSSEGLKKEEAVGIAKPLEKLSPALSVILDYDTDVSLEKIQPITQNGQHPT
# Assay Name: In vitro Binding affinity towards dopamine D1 receptor using bovine striatal membrane preparations and antagonist [3H]-SCH- 23390
pKi: −log10 of the molar value.
Recorded pKi values for a group of compounds are listed next.

Molecule Smiles: c1ccc(C2=NC[C@H](N3CCN(c4ccccc4)CC3)CCN2)cc1
Test System: UniProtKB Q95136
pKi: 4.64
--
Molecule Smiles: c1ccc(C2=NCC[C@@H](CN3CCN(c4ccccc4)CC3)N2)cc1
Test System: UniProtKB Q95136
pKi: 4.41
--
Molecule Smiles: c1ccc(C2=N[C@@H](CN3CCN(c4ccccc4)CC3)CCN2)cc1
Test System: UniProtKB Q95136
pKi: 4.54
